Numbers sourced from BindingDB's records for patent US12398118.

Record form. Attribute: IC50. Fill in for each entry.
Molecular target: Rho-associated protein kinase 2 (Homo sapiens)
Sequence (O75116 whole entry): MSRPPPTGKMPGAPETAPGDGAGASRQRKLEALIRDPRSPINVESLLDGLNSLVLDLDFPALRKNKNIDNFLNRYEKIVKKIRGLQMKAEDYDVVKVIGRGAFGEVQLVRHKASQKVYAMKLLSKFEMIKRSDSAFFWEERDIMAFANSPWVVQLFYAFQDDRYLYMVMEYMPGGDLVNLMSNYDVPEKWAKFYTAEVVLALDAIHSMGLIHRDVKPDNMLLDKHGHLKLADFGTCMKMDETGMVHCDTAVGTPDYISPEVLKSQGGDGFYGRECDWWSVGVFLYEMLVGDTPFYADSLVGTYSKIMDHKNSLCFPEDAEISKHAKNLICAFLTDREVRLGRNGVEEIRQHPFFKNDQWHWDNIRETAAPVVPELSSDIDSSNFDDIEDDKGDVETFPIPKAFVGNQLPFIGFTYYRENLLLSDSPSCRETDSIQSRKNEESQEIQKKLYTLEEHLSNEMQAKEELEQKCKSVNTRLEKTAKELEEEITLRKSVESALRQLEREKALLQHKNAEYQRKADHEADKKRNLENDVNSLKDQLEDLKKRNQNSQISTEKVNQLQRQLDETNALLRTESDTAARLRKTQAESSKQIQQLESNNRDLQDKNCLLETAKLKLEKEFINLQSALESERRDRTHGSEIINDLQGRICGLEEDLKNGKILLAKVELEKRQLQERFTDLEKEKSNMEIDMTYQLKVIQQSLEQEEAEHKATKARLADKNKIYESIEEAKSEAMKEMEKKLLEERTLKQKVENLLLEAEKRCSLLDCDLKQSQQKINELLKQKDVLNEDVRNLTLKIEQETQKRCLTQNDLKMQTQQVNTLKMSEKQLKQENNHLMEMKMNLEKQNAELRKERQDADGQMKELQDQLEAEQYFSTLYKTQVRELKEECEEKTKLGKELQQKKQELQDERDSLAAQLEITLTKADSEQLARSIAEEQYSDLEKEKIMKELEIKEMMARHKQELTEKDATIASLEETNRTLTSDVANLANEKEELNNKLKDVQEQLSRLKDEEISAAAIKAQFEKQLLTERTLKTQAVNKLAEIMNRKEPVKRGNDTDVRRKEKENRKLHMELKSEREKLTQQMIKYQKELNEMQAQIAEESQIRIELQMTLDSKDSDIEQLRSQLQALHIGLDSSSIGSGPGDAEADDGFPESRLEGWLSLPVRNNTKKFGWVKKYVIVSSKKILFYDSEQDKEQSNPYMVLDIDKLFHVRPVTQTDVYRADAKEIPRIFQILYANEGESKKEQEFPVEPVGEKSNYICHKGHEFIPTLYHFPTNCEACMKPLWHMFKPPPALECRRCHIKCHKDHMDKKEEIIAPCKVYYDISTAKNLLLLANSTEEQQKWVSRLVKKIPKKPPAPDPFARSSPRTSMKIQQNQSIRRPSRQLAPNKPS
Value and unit, in that order.

* O=C1NCCc2cc(Nc3nc(-c4cc5c(s4)CCN(C(=O)OCC(F)(F)F)C5)ncc3F)ccc21 [US12398118, Compound C75] | 37 nM

Okay, here is my list. What is IC50 for each of these?
1. CC(C)(C)OC(=O)N1CCc2sc(-c3ncc(F)c(Nc4ccc5c(N)nccc5c4)n3)cc2C1 [US12398118, Compound C45]
2. O=C(OCC(F)(F)F)N1Cc2ccc(-c3ncc(F)c(Nc4ccc5c(=O)[nH]ccc5c4)n3)cc2C1 [US12398118, Compound C72]
3. CC(C)(C)CC(=O)N1CCc2sc(-c3ncc(F)c(Nc4ccc5c(=O)[nH]ccc5c4)n3)cc2C1 [US12398118, Compound C52]
4. CC(C)(C)OC(=O)N1CCc2sc(-c3ncc(F)c(Nc4ccc5c(=O)[nH]ccc5c4)n3)cc2C1 [US12398118, Compound C28]
5. CC(OC(=O)N1CCc2sc(-c3ncc(F)c(Nc4ccc5c(c4)CCNC5=O)n3)cc2C1)C(F)(F)F (configuration not stated) [US12398118, Compound C43]
6. O=C(OC1CCC(F)(F)CC1)N1CCc2cc(-c3ncc(F)c(Nc4ccc5c(=O)[nH]ccc5c4)n3)ccc2C1 [US12398118, Compound C35]

1: 491 nM; 2: 24 nM; 3: 28 nM; 4: 6 nM; 5: 71 nM; 6: 93 nM
